Assay Target: T1, human OX40 protein (Acro biosystem, #OX0-H5224) (human, UniProt P43489 29-216)
T1 construct: Bought recombinant protein
T1 sequence (looked up): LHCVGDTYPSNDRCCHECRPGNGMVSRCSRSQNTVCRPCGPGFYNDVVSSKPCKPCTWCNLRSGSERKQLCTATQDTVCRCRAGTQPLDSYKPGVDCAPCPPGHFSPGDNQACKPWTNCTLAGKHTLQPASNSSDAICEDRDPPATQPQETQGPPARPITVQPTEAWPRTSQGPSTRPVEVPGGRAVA
Test Method Notes: BLI, antibody on ProA sensor, 1:1 global fit
Decide using koff alone. Strictly below 0.0004 s⁻¹: yes. Equal to or above 0.0004 s⁻¹: no.

Solved cases (3 shown):
>  <Binder>
PR002077 (antibody, human IgG1, V domains shown, no light chain; also called anti-OX40 HCAb antibody) VH: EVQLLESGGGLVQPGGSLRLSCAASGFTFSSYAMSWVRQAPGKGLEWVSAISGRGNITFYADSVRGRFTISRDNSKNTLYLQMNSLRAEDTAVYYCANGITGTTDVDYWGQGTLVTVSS

>  <Group Label>
yes

$$$$
>  <Binder>
PR002065 (antibody, human IgG1, V domains shown, no light chain; also called anti-OX40 HCAb antibody) VH: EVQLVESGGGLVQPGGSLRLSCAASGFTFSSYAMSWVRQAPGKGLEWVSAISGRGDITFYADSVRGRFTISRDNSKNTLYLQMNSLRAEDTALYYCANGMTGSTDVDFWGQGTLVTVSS

>  <Group Label>
yes

$$$$
>  <Binder>
PR002067 (antibody, human IgG1, V domains shown, no light chain; also called anti-OX40 HCAb antibody) VH: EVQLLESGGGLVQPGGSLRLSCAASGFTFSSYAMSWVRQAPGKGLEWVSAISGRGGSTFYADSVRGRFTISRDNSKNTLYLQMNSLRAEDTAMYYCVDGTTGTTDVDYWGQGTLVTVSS

>  <Group Label>
yes

$$$$

Prompt: Criterion: koff strictly below 0.0004 s⁻¹. Is it met by PR002066 (antibody, human IgG1, V domains shown, no light chain; also called anti-OX40 HCAb antibody) VH: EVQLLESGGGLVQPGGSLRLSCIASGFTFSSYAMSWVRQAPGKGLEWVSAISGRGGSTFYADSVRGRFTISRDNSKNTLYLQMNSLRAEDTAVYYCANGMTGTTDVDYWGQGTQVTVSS ?
Completion: yes

Prompt: Criterion: koff strictly below 0.0004 s⁻¹. Is it met by PR002063 (antibody, human IgG1, V domains shown, no light chain; also called anti-OX40 HCAb antibody) VH: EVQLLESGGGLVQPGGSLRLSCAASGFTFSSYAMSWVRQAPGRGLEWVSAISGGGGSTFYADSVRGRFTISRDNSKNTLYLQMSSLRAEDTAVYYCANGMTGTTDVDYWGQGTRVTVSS ?
Completion: no
